- particulars: in water, 283.15 K
reported-metric: solubility (mole fraction)
// return a plain number; no unit text

Entry `Nc1nc(N)nc(NC2CC2)n1` — recorded solubility (mole fraction) = 0.000931

###

- particulars: in isobutanol, 293.15 K
reported-metric: solubility (mole fraction)
Just the number, please, no unit attached.

solubility (mole fraction) reported for this molecule `Nc1nc(N)nc(NC2CC2)n1` : 0.000594

###

- particulars: in acrylic acid, 318.15 K
reported-metric: solubility (mole fraction)
Output spec: single numeric token, no unit.

Per the record, `Nc1nc(N)nc(NC2CC2)n1` has solubility (mole fraction) of 0.0785

###

- particulars: in isobutanol, 308.15 K
reported-metric: solubility (mole fraction)
Form: value (number only, do not type unit).

For record `Nc1nc(N)nc(NC2CC2)n1` the listed solubility (mole fraction) is 0.000983

###

- particulars: in isopentanol, 298.15 K
reported-metric: solubility (mole fraction)
// no unit, no text: just the number

Measured solubility (mole fraction), `Nc1nc(N)nc(NC2CC2)n1` : 0.00087

###

- particulars: in acetic acid, 313.15 K
reported-metric: solubility (mole fraction)
Lab note: jot the number down without any unit.

The value of solubility (mole fraction) measured for the compound `Nc1nc(N)nc(NC2CC2)n1` turned out to be 0.0275

###

- particulars: in n-heptanol, 293.15 K
reported-metric: solubility (mole fraction)
Answer with the value's number alone.

For reference, reported solubility (mole fraction) for `Nc1nc(N)nc(NC2CC2)n1` stands at 0.000422

###

- particulars: in n-hexanol, 293.15 K
reported-metric: solubility (mole fraction)
Respond numerically, and do not add a unit to the figure.

Recorded solubility (mole fraction) (molecule `Nc1nc(N)nc(NC2CC2)n1` ): 0.000816

###

- particulars: in isopropanol, 318.15 K
reported-metric: solubility (mole fraction)
Reply with just the number.

Given item `Nc1nc(N)nc(NC2CC2)n1` , the value recorded as its solubility (mole fraction) is 0.00146

###

- particulars: in sec-butanol, 283.15 K
reported-metric: solubility (mole fraction)
# answer = number (no unit)

For `Nc1nc(N)nc(NC2CC2)n1` the compound record lists solubility (mole fraction) as 0.000301

###

- particulars: in water, 293.15 K
reported-metric: solubility (mole fraction)
Write the number on its own, no unit after it.

Given item `Nc1nc(N)nc(NC2CC2)n1` , the value recorded as its solubility (mole fraction) is 0.00125

###

- particulars: in n-hexanol, 318.15 K
reported-metric: solubility (mole fraction)
Give the figure only, with no unit attached.

So, `Nc1nc(N)nc(NC2CC2)n1` ? Its solubility (mole fraction) was 0.00227

###

- particulars: in acetone, 313.15 K
reported-metric: solubility (mole fraction)
Please give only the number in your answer, with no unit.

The recorded solubility (mole fraction) for `Nc1nc(N)nc(NC2CC2)n1` is 0.00103

###

- particulars: in n-hexanol, 288.15 K
reported-metric: solubility (mole fraction)
Answer field: number only, no words.

Quick note, solubility (mole fraction) for `Nc1nc(N)nc(NC2CC2)n1` landed at 0.000661

###

- particulars: in acetic acid, 318.15 K
reported-metric: solubility (mole fraction)
I'd appreciate a reply containing only the number, no unit.

Summary for this compound, `Nc1nc(N)nc(NC2CC2)n1` : solubility (mole fraction) is 0.033

###

- particulars: in n-hexanol, 308.15 K
reported-metric: solubility (mole fraction)
Answer with the value's number alone.

solubility (mole fraction) for `Nc1nc(N)nc(NC2CC2)n1` is 0.00151

###

- particulars: in sec-butanol, 313.15 K
reported-metric: solubility (mole fraction)
I only need the number, thanks.

# compound `Nc1nc(N)nc(NC2CC2)n1` ; its solubility (mole fraction) = 0.000995

###

- particulars: in propionic acid, 313.15 K
reported-metric: solubility (mole fraction)

Sure, the documented solubility (mole fraction) for `Nc1nc(N)nc(NC2CC2)n1` is 0.0177

###

- particulars: in acetone, 323.15 K
reported-metric: solubility (mole fraction)
Answer with a number only.

Record summary for `Nc1nc(N)nc(NC2CC2)n1` : reported solubility (mole fraction) = 0.00127

###

- particulars: in isopropanol, 303.15 K
reported-metric: solubility (mole fraction)
# respond with the number and nothing more

# solubility (mole fraction) of `Nc1nc(N)nc(NC2CC2)n1` = 0.000915

###

- particulars: in acetone, 308.15 K
reported-metric: solubility (mole fraction)
Please give only the number in your answer, with no unit.

Briefly, solubility (mole fraction) measured for `Nc1nc(N)nc(NC2CC2)n1` : 0.00091

###

- particulars: in isobutanol, 288.15 K
reported-metric: solubility (mole fraction)

Entry under test: `Nc1nc(N)nc(NC2CC2)n1` . Its solubility (mole fraction) was 0.000483

###

- particulars: in n-hexanol, 303.15 K
reported-metric: solubility (mole fraction)
Reply briefly: the number, and no unit.

Reported solubility (mole fraction) ( `Nc1nc(N)nc(NC2CC2)n1` ) = 0.00123

###

- particulars: in methanol, 283.15 K
reported-metric: solubility (mole fraction)
Quick one: just the number, no unit, thanks!

Query `Nc1nc(N)nc(NC2CC2)n1` yields solubility (mole fraction) of 0.00199

###

- particulars: in isopentanol, 318.15 K
reported-metric: solubility (mole fraction)
Reply with the value as a number alone.

Sample `Nc1nc(N)nc(NC2CC2)n1` ; solubility (mole fraction) observed: 0.0018

###

- particulars: in acetic acid, 298.15 K
reported-metric: solubility (mole fraction)

Value of solubility (mole fraction) reported for the compound `Nc1nc(N)nc(NC2CC2)n1` is 0.0155

###

- particulars: in n-propanol, 283.15 K
reported-metric: solubility (mole fraction)
// return a plain number; no unit text

Reported solubility (mole fraction) for `Nc1nc(N)nc(NC2CC2)n1` was 0.000809

###

- particulars: in acrylic acid, 298.15 K
reported-metric: solubility (mole fraction)
Give the figure only, with no unit attached.

The measured solubility (mole fraction) associated with `Nc1nc(N)nc(NC2CC2)n1` reads 0.0413

###

- particulars: in water, 323.15 K
reported-metric: solubility (mole fraction)
In your answer, state the number alone without any accompanying words.

The molecule listed as `Nc1nc(N)nc(NC2CC2)n1` has a reported solubility (mole fraction) of 0.00293

###

- particulars: in n-propanol, 303.15 K
reported-metric: solubility (mole fraction)
// print number alone

Just so you know, measured solubility (mole fraction) for `Nc1nc(N)nc(NC2CC2)n1` came out at 0.00163

###

- particulars: in isobutanol, 303.15 K
reported-metric: solubility (mole fraction)
Response field accepts a number only; no unit should be typed.

solubility (mole fraction) reported for this compound `Nc1nc(N)nc(NC2CC2)n1` : 0.00084

###

- particulars: in n-heptanol, 288.15 K
reported-metric: solubility (mole fraction)
Output: the number by itself.

Recorded result, `Nc1nc(N)nc(NC2CC2)n1` , solubility (mole fraction): 0.000322

###

- particulars: in n-butanol, 313.15 K
reported-metric: solubility (mole fraction)

solubility (mole fraction) measured on `Nc1nc(N)nc(NC2CC2)n1` = 0.00217

###

- particulars: in n-heptanol, 318.15 K
reported-metric: solubility (mole fraction)
Number only, no unit.

Quick note, solubility (mole fraction) for `Nc1nc(N)nc(NC2CC2)n1` landed at 0.00162

###

- particulars: in n-heptanol, 303.15 K
reported-metric: solubility (mole fraction)
Returns: the value as a bare number; no unit string appended.

Short answer for `Nc1nc(N)nc(NC2CC2)n1` : solubility (mole fraction) was 0.000737

###

- particulars: in isopropanol, 293.15 K
reported-metric: solubility (mole fraction)
Would you mind answering with just the numeric figure?

Briefly, solubility (mole fraction) measured for `Nc1nc(N)nc(NC2CC2)n1` : 0.000638

###

- particulars: in isopentanol, 288.15 K
reported-metric: solubility (mole fraction)
The answer should be a number; do not append a unit.

Notebook: `Nc1nc(N)nc(NC2CC2)n1` , solubility (mole fraction) read as 0.000592

###

- particulars: in acetone, 303.15 K
reported-metric: solubility (mole fraction)
API doc: respond with a numeric literal and nothing else, no unit.

The measured solubility (mole fraction) associated with `Nc1nc(N)nc(NC2CC2)n1` reads 0.000805
